Provenance of the data: patent US20210196796A1

MEASUREMENT TARGET: T1, orthogonal hCD122 receptor (hoRb), hCD122 with H133D and Y134F (human, UniProt P14784 27-550); note: reference of the scale not given here
T1 sequence: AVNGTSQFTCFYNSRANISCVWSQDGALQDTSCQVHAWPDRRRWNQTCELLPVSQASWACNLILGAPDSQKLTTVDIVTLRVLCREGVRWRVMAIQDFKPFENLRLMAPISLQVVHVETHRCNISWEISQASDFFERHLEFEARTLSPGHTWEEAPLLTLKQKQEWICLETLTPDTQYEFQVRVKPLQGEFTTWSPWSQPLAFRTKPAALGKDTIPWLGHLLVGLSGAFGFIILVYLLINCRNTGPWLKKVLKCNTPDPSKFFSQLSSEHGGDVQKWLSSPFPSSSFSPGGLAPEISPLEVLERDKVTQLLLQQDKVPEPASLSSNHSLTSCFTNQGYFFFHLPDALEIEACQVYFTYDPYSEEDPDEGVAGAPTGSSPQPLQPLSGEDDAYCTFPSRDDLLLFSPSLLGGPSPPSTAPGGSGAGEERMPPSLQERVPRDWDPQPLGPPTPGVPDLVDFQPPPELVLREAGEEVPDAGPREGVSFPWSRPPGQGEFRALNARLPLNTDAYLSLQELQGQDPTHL
ASSAY PROTOCOL: cell-based or functional assay
EXPERIMENTAL READOUT: Relative Proliferation Fold Change 3F8 1:10 (fold)
Hi! Could you send only the number? It should be in fold, unit omitted.

Example entries and their recorded answers appear below.
M39V, SQVLKA (ligand) APTSSSTKKTQLQLSQLLVLLKAILNGINNYKNPKLTRVLTFKFYMPKKATELKHLQCLEEELKPLEEVLNLAQSKNFHLRPRDLISNINVIVLELKGSETTFMCEYADETATIVEFLNRWITFCQSIISTLT
51.3
T3A, SQVLKA (ligand) APASSSTKKTQLQLSQLLVLLKAILNGINNYKNPKLTRMLTFKFYMPKKATELKHLQCLEEELKPLEEVLNLAQSKNFHLRPRDLISNINVIVLELKGSETTFMCEYADETATIVEFLNRWITFCQSIISTLT
11
F42K, SQVLKA (ligand) APTSSSTKKTQLQLSQLLVLLKAILNGINNYKNPKLTRMLTKKFYMPKKATELKHLQCLEEELKPLEEVLNLAQSKNFHLRPRDLISNINVIVLELKGSETTFMCEYADETATIVEFLNRWITFCQSIISTLT
12.7
SQVLKS (ligand) APTSSSTKKTQLQLSQLLVLLKSILNGINNYKNPKLTRMLTFKFYMPKKATELKHLQCLEEELKPLEEVLNLAQSKNFHLRPRDLISNINVIVLELKGSETTFMCEYADETATIVEFLNRWITFCQSIISTLT
58.3
Q126G, SQVLKA (ligand) APTSSSTKKTQLQLSQLLVLLKAILNGINNYKNPKLTRMLTFKFYMPKKATELKHLQCLEEELKPLEEVLNLAQSKNFHLRPRDLISNINVIVLELKGSETTFMCEYADETATIVEFLNRWITFCGSIISTLT
2.14

Notebook: N88E, SQVLKA (ligand) APTSSSTKKTQLQLSQLLVLLKAILNGINNYKNPKLTRMLTFKFYMPKKATELKHLQCLEEELKPLEEVLNLAQSKNFHLRPRDLISEINVIVLELKGSETTFMCEYADETATIVEFLNRWITFCQSIISTLT , Relative Proliferation Fold Change 3F8 1:10 read as 1.2

Notebook: KQVLKA (ligand) APTSSSTKKTQLQLKQLLVLLKAILNGINNYKNPKLTRMLTFKFYMPKKATELKHLQCLEEELKPLEEVLNLAQSKNFHLRPRDLISNINVIVLELKGSETTFMCEYADETATIVEFLNRWITFCQSIISTLT , Relative Proliferation Fold Change 3F8 1:10 read as 3.88

Notebook: SNVLKA (ligand) APTSSSTKKTQLQLSNLLVLLKAILNGINNYKNPKLTRMLTFKFYMPKKATELKHLQCLEEELKPLEEVLNLAQSKNFHLRPRDLISNINVIVLELKGSETTFMCEYADETATIVEFLNRWITFCQSIISTLT , Relative Proliferation Fold Change 3F8 1:10 read as 11.8
